IC50, UniProt:O00408, per-entry values.
test_readout: IC50 (nM)

- compound: "Cc1cnc2c(C(=O)NC3(c4ccc(C(F)(F)F)nc4)CCOCC3)cnn2c1"
  IC50 [nM]: 834
- compound: "O=C(NC1(c2ccc(C(F)(F)F)cc2F)CCOCC1O)c1cnn2cc(C3CC3)cnc12 (single isomer, unassigned) [Example 82b]"
  IC50 [nM]: 40
- compound: "Cc1nn2cc(C3CC3)cnc2c1C(=O)NC1(c2ccc3ccccc3n2)CCOCC1"
  IC50 [nM]: 297
- compound: "Cc1cnc2c(C(=O)NC3(c4ncc(C(F)(F)F)cc4F)CCOCC3)c(C)nn2c1"
  IC50 [nM]: 129
- compound: "Cc1cnc2c(C(=O)NC3(c4ccc(C(F)(F)F)cc4)CCOCC3)cnn2c1"
  IC50 [nM]: 117

(P) Cc1cnc2c(C(=O)NC3(c4ccc(C(F)(F)F)nc4)CCOCC3O)cnn2c1 (single isomer, unassigned) [Example 87a]
(Q) Cc1cnc2c(C(=O)NC3(c4ccc(C(F)(F)F)nc4)CCOCC3O)cnn2c1 (single isomer, unassigned) [Example 87b]
Query: When their IC50 values are compared, which is larger, P or Q ? Let me know the label of the one you choose.
Response: P
(P: 1000 nM, Q: 184 nM)

---

- assay_procedure: Metabolic stability in pooled human liver microsomes
- Type: in vitro ADME
- test_conditions: human liver microsomes, 1 mg/mL protein, 1 μM compound, 37° C.
test_readout: Half-life t½ human (h)

- compound: "O=C(NC1(c2ccc(C(F)(F)F)cc2F)COCC1O)c1cnn2cc(C3CC3)cnc12 (single isomer, unassigned) [Example 69]"
  test_readout: "Half-life t½ human"
  numeric_readout: 0.883
- compound: "O=C(NC1(c2ccc(C(F)(F)F)cc2F)COCC1O)c1cnn2cc(C3CC3)cnc12 (single isomer, unassigned) [Example 70]"
  test_readout: "Half-life t½ human"
  numeric_readout: 1.05

---

- assay_procedure: In-vivo effect: animal experiments and sample analysis (plasma, brain, CSF concentration)
- test_conditions: brain homogenate; rat, 0.5 h between administration and CSF sampling; doses of 10.0 or 5 μmol/kg; read-out: conc brain
test_readout: concentration at 0.5 h (nM)

// known answers, use as guide
- compound: "Cc1nn2cc(C3CC3)cnc2c1C(=O)NC1(c2ccc(C(F)(F)F)cn2)CCOCC1"
  concentration at 0.5 h [nM]: 1320
- compound: "O=C(NC1(c2ccc(C(F)(F)F)cc2F)CCOCC1O)c1cnn2cc(C3CC3)cnc12 (single isomer, unassigned) [Example 82a]"
  concentration at 0.5 h [nM]: 1180
- compound: "Cc1nn2cc(C3CC3)cnc2c1C(=O)NC1(c2ccc(C(F)(F)F)nc2)CCOCC1"
  concentration at 0.5 h [nM]: 957

(a) Cc1cnc2c(C(=O)NC3(c4ccc(C(F)(F)F)cc4F)CCOCC3O)cnn2c1 (single isomer, unassigned) [Example 81a]
(b) Cc1cnc2c(C(=O)NC3(c4ccc(C(F)(F)F)cc4F)CCOCC3(C)O)cnn2c1 (single isomer, unassigned) [Example 83a]
Query: // pick min by concentration at 0.5 h: a , b Let me know the label of the one you choose.
Response: b

---

- assay_procedure: Plasma protein binding with equilibrium dialysis, human plasma
- Assay type: in vitro ADME
- test_conditions: human, pooled human plasma (with NaEDTA), pH 7.4, human plasma, equilibrium dialysis 2 hours 37° C., read-out: PPB HUM % BINDING (converted)
test_readout: fraction unbound at 2 h, 1 µM

// known answers, use as guide
- compound: "Cc1cnc2c(C(=O)NC3(c4ccc(C(F)(F)F)cc4F)CCOCC3O)cnn2c1 (single isomer, unassigned) [Example 81a]"
  fraction unbound at 2 h, 1 µM: 0.37
- compound: "Cc1nn2cc(C3CC3)cnc2c1C(=O)NC1(c2ccc(C(F)(F)F)nc2)CCOCC1"
  fraction unbound at 2 h, 1 µM: 0.246
- compound: "Cc1cnc2c(C(=O)NC3(c4ccc(C(F)(F)F)cc4F)CCOC3)cnn2c1 (racemic)"
  fraction unbound at 2 h, 1 µM: 0.076
- compound: "CC1(O)COCCC1(NC(=O)c1cnn2cc(C3CC3)cnc12)c1ccc(C(F)(F)F)cc1F (racemic) [Example 53]"
  fraction unbound at 2 h, 1 µM: 0.183
- compound: "Cc1nn2cc(C3CC3)cnc2c1C(=O)NC1(c2ccc(C(F)(F)F)cn2)CCOCC1"
  fraction unbound at 2 h, 1 µM: 0.162
- compound: "O=C(NC1(c2ccc(C(F)(F)F)cc2F)CCOCC1O)c1cnn2cc(C3CC3)cnc12 (single isomer, unassigned) [Example 82a]"
  fraction unbound at 2 h, 1 µM: 0.213

(P) Cc1nn2cc(C3CC3)cnc2c1C(=O)NC1(c2ccc(C(F)(F)F)nc2)CCOCC1O (racemic) [Example 51]
(Q) Cc1cnc2c(C(=O)NC3(c4ccc(C(F)(F)F)cc4F)CCOCC3O)cnn2c1 (racemic) [Example 46]
(R) O=C(NC1(c2ccc(C(F)(F)F)cc2)CCOC1)c1cnn2cc(C3CC3)cnc12 (racemic)
(S) Cc1nn2cc(C3CC3)cnc2c1C(=O)NC1(c2ncc(C(F)(F)F)cc2F)CCOCC1
(T) O=C(NC1(c2ccc(C(F)(F)F)cc2F)CCOCC1)c1cnn2cc(F)cnc12
Query: Arrange these 5 compounds in increasing order of fraction unbound at 2 h, 1 µM. Enter labels, ranked according to the request.
Response: R, S, T, Q, P
(R: 0.056, S: 0.086, T: 0.157, Q: 0.329, P: 0.531)

---

- test_system: PDE 2A (Homo sapiens (Human), UniProt O00408)
- Sequence (O00408 whole entry, species assumed): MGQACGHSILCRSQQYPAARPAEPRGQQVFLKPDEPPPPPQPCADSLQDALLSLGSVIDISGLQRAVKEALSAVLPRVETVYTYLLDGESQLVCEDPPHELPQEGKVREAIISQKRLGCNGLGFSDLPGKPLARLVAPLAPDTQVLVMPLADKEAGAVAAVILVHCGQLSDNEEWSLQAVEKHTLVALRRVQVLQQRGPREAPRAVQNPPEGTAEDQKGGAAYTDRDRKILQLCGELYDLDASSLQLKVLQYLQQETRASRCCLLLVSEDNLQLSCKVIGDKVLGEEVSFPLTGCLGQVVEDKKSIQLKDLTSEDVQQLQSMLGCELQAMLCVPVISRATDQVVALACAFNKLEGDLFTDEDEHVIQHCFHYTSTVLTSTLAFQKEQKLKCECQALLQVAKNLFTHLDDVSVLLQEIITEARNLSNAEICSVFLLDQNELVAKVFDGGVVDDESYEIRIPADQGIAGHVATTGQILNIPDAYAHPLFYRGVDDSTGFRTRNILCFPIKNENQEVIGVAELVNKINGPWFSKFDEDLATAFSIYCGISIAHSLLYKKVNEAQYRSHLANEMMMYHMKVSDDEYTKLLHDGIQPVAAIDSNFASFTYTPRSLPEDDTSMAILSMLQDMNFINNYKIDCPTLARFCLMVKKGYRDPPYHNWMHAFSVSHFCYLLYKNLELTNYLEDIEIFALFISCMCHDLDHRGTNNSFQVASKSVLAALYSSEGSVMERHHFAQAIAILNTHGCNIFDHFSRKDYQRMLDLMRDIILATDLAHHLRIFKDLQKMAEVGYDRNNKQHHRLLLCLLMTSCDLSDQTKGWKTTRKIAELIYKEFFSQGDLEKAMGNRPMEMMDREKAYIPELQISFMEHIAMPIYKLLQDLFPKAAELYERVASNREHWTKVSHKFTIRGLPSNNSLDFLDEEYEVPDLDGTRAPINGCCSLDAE
pIC50: −log10 of the molar value.
test_readout: pIC50

// known answers, use as guide
- molecule: "Cc1nn2cc(C3CC3)cnc2c1C(=O)NC1(c2ncc(C(F)(F)F)cc2F)CCOCC1 [Example 17]"
  pIC50: 7.41
- molecule: "O=C(NC1(c2ccc(C(F)(F)F)cc2F)COCC1O)c1cnn2cc(C3CC3)cnc12 (single isomer, unassigned) [Example 71]"
  pIC50: 7.89

(1) O=C(N[C@]1(c2ccc(C(F)(F)F)cc2F)CCOC[C@H]1O)c1cnn2cc(C3CC3)cnc12 (racemic) [Example 48]
(2) Cc1cnc2c(C(=O)NC3(c4ccc(Cl)cc4F)CCOCC3)c(C)nn2c1 [Example 4]
(3) O=C(NC1(c2ccc(Cl)cc2F)CCOCC1)c1cnn2cc(C3CC3)cnc12 [Example 7]
Query: Order these by pIC50, descending, and give the full ranking. Enter labels, ranked according to the request.
Response: 1, 2, 3
(1: 8.87, 2: 7.32, 3: 7.11)

(a) Cc1cnc2c(C(=O)NC3(c4ccc(C(F)(F)F)cc4)CCOCC3O)cnn2c1 (racemic) [Example 59]
(b) O=C(NC1(c2ncc(C(F)(F)F)cc2F)CCOCC1O)c1cnn2cc(C3CC3)cnc12 (racemic) [Example 57]
(c) O=C(NC1(c2ccc(C(F)(F)F)nc2)CCOCC1)c1cnn2cc(C3CC3)cnc12 [Example 27]
Query: Arrange these 3 molecules in increasing order of pIC50. Enter labels, ranked according to the request.
Response: c, b, a
(c: 6.27, b: 6.99, a: 7.22)

---

- assay_procedure: In-vivo effect: animal experiments and sample analysis (plasma, brain, CSF concentration)
- test_conditions: rat, 0.5 h between administration and CSF sampling; read-out: c(CSF)/c(plasma)
test_readout: Kp at 0.5 h

- compound: "Cc1nn2cc(C3CC3)cnc2c1C(=O)NC1(c2ccc(C(F)(F)F)nc2)CCOCC1"
  test_readout: "Kp at 0.5 h"
  numeric_readout: 0.12

(A) Cc1nn2cc(C3CC3)cnc2c1C(=O)NC1(c2ccc(C(F)(F)F)cn2)CCOCC1
(B) O=C(NC1(c2ccc(C(F)(F)F)cc2F)CCOCC1O)c1cnn2cc(C3CC3)cnc12 (single isomer, unassigned) [Example 82a]
Query: When their Kp at 0.5 h values are compared, which is larger, A or B ? Let me know the label of the one you choose.
Response: A

---

- assay_procedure: In-vivo effect: animal experiments and sample analysis (plasma, brain, CSF concentration)
- test_conditions: plasma; rat, 0.5 h between administration and CSF sampling; doses of 10.0 or 5 μmol/kg; read-out: conc plasma
test_readout: concentration at 0.5 h (nM)

// known answers, use as guide
- compound: "Cc1nn2cc(C3CC3)cnc2c1C(=O)NC1(c2ccc(C(F)(F)F)nc2)CCOCC1"
  numeric_readout: 1040
- compound: "Cc1cnc2c(C(=O)NC3(c4ccc(C(F)(F)F)cc4F)CCOCC3O)cnn2c1 (single isomer, unassigned) [Example 81a]"
  numeric_readout: 2460
- compound: "O=C(NC1(c2ccc(C(F)(F)F)cc2F)CCOCC1O)c1cnn2cc(C3CC3)cnc12 (single isomer, unassigned) [Example 82a]"
  numeric_readout: 3320

(A) Cc1cnc2c(C(=O)NC3(c4ccc(C(F)(F)F)cc4F)CCOCC3(C)O)cnn2c1 (single isomer, unassigned) [Example 83a]
(B) Cc1nn2cc(C3CC3)cnc2c1C(=O)NC1(c2ccc(C(F)(F)F)cn2)CCOCC1
Query: // pick min by concentration at 0.5 h: A , B Let me know the label of the one you choose.
Response: A
(A: 794 nM, B: 1210 nM)
